Tested on: HCT-15 colon
RUN_DESCRIPTION: NCI tumour cell line growth inhibition, 48 h
Entries annotated with measured TGI

Worked examples, 2 compounds total:
molecular_string=O=C(NCC(=O)N1CCOC1=O)OCc1ccccc1 study_target="HCT-15 colon" assay_endpoint=TGI obs_value="> 100 µM"
molecular_string=C=CCn1c(=O)c2cnc(Nc3ccc(N4CCN(C)CC4)cc3)nc2n1-c1cccc(C(C)(C)O)n1 study_target="HCT-15 colon" assay_endpoint=TGI obs_value="> 67.1 µM"

In one line, give reported TGI of the entry COc1ccc(Oc2ccccc2NC(=O)CNC(=O)c2cccc3ccccc23)cc1 .
> 25 µM

====

Entries annotated with measured TGI
Tested on: UACC-62 melanoma
RUN_DESCRIPTION: NCI tumour cell line growth inhibition, 48 h

Worked examples, 5 compounds total:
compound=Nc1cc2cccc[n+]2c2cccc(Cl)c12 assay_endpoint=TGI obs_value="59.8 µM"
compound=CC(=O)NNc1nc(C)c(C(=O)/C=C/c2ccc(/C=C/C(=O)c3sc(NNC(C)=O)nc3C)cc2)s1 assay_endpoint=TGI obs_value="> 100 µM"
compound=Cc1cc(C)c2c(=N)c3ccccc3n(CCCCCCO)c2n1 assay_endpoint=TGI obs_value="8.89 µM"
compound="COC(=O)C1=C(C)N(NC(=O)c2ccccc2)C2(O)CCCC(=O)C12C (stereo unspecified)" assay_endpoint=TGI obs_value="> 100 µM"
compound="O=NN(CCCl)C(=O)NC1CCC(=O)NC1=O (stereo unspecified)" assay_endpoint=TGI obs_value="192 µM"

With those in mind, consider the next compound.
In one line, give reported TGI of the entry Clc1ccccc1NN(Cc1ccncc1)c1ccccc1Cl .
30.7 µM
